Where these numbers come from: patent US10047051B2

assayed target: CFTR ΔF508 mutant (Homo sapiens, UniProt P13569, DEL508-508)
Sequence (P13569 with tags, fused parts or gaps DEL508-508): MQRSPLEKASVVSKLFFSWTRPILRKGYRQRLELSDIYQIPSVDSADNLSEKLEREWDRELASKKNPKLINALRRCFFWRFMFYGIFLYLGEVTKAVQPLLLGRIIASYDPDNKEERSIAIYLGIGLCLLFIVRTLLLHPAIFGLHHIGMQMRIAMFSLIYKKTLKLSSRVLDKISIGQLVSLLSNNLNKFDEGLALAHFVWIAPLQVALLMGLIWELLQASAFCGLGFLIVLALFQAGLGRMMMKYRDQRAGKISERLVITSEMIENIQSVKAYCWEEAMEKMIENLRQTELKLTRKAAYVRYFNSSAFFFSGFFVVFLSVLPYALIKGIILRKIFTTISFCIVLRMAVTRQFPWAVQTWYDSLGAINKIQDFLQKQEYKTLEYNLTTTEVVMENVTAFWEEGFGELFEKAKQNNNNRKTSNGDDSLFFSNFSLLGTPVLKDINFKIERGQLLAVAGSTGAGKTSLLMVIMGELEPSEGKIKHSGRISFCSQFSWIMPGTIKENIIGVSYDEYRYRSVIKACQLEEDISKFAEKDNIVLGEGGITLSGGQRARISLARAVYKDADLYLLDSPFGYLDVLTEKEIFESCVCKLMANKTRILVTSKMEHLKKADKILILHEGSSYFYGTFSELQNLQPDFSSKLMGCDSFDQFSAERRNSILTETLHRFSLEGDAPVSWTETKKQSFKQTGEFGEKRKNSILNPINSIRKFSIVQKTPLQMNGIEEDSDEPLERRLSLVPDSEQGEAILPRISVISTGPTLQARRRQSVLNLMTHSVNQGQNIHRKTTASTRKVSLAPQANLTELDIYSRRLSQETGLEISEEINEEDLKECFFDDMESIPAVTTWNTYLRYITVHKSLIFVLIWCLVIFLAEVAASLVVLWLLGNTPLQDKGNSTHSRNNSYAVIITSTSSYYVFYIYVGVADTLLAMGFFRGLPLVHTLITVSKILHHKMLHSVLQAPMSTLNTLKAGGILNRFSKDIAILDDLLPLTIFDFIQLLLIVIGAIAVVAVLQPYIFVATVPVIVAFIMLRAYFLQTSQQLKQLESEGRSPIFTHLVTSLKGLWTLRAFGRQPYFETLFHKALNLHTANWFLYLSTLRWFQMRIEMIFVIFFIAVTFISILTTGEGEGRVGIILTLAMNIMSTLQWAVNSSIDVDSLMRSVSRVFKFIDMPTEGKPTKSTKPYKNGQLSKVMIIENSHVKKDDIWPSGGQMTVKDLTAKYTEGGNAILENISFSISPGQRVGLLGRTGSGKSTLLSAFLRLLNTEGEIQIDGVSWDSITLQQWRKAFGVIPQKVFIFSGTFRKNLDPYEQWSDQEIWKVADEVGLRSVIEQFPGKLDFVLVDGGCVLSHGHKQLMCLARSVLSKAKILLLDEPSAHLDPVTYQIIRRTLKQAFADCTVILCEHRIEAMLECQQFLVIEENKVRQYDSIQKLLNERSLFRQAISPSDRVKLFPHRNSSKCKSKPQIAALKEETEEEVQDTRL
assay notes: YFP-halide influx assay for the CFTR-ΔF508 mutation (CFBE41o- cells)
applied conditions: forskolin 10.67 μM, from (1−F/F0) vs concentration plot
Experimental: The YFP halide influx assay measured the functionality of the cystic fibrosis Transmembrane Conductance regulator (CFTR) channels in the cystic fibrosis bronchial epithelium cell line CFBE41o-. The assay was used to evaluate the capacity of compounds to increase the open probability of existing CFTR channels in the membrane. […] The I-induced quenching of fluorescence was recorded on an immediately after injection of iodide for 2 minutes on an FDSS/μCell (Hamamatsu). […]
Label true (1) when EC50 is strictly below 50 nM; at or above that, label false (0).

Just wondering, is EC50 of Nc1cc(S(=O)(=O)c2cccc(F)c2)cnc1C(=O)NC[C@@H](O)C(F)(F)F below 50 nM? true (1)

Just wondering, is EC50 of Nc1cc(S(=O)(=O)c2ccc(OC(F)(F)F)cc2)cnc1C(=O)NCC1CC(F)(F)C1 below 50 nM? false (0)

Just wondering, is EC50 of Nc1cc(S(=O)(=O)c2ccc(OC(F)(F)F)cc2)cnc1C(=O)NCC1(CO)CC1 below 50 nM? false (0)

Just wondering, is EC50 of CC(C)C[C@H](CO)NC(=O)c1ncc(S(=O)(=O)c2ccc(OC(F)(F)F)cc2)cc1N below 50 nM? false (0)

Just wondering, is EC50 of CC(C)(O)C1CN(C(=O)c2ncc(S(=O)(=O)c3ccc(C(F)(F)F)cc3F)cc2N)C1 below 50 nM? true (1)

Just wondering, is EC50 of C[C@H](O)CNC(=O)c1nc(C2CC2)c(S(=O)(=O)c2ccc(OC(F)(F)F)cc2)cc1N below 50 nM? true (1)

Just wondering, is EC50 of CC[C@@H](CO)NC(=O)c1ncc(S(=O)(=O)c2ccc(C(F)(F)F)cc2)cc1N below 50 nM? true (1)

Just wondering, is EC50 of Nc1cc(S(=O)(=O)c2ccc(C(F)(F)F)cc2)cnc1C(=O)N[C@@H]1COCC[C@@H]1O [Compound 235] below 50 nM? false (0)

Just wondering, is EC50 of Cc1ccc(C(CO)NC(=O)c2ncc(S(=O)(=O)c3ccc(OC(F)(F)F)cc3)cc2N)cc1 (stereo not shown) below 50 nM? false (0)

Just wondering, is EC50 of Nc1cc(S(=O)(=O)N2CCC(F)CC2)cnc1C(=O)NCC(O)C(F)(F)F (stereo not shown) below 50 nM? true (1)

###

assayed target: CFTR ΔF508 mutant (Homo sapiens, UniProt P13569, DEL508-508)
assay notes: YFP-halide influx assay for the CFTR-ΔF508 mutation (CFBE41o- cells)
applied conditions: forskolin 10.67 μM, from (1−F/F0) vs concentration plot
value type: pEC50
// returns pEC50 (minus log10 of molar concentration), number only

Consider the compound Nc1cc(S(=O)(=O)c2ccc(C(F)(F)F)cc2F)cnc1C(=O)N[C@@H]1COCC[C@@H]1O (racemic) [Compound 218] and give its measured pEC50. 7.35

Consider the compound CC(C)COCC(O)CNC(=O)c1ncc(S(=O)(=O)c2ccc(OC(F)(F)F)cc2F)cc1N (stereo not drawn) [Compound 171] and give its measured pEC50. 8.06

Consider the compound Nc1cc(S(=O)(=O)c2ccc(OC(F)(F)F)cc2)cnc1C(=O)NC[C@@H](O)C(F)(F)F [Compound 37] and give its measured pEC50. 8.64

Consider the compound Nc1cc(S(=O)(=O)c2ccc(OC(F)(F)F)cc2)cnc1C(=O)NCC(=O)NC1CC1 [Compound 58] and give its measured pEC50. 7.69

Consider the compound Nc1cc(S(=O)(=O)c2ccc(OC(F)(F)F)cc2)cnc1C(=O)N[C@@H]1COC[C@H]1O (racemic) [Compound 74] and give its measured pEC50. 7.76

Consider the compound Nc1cc(S(=O)(=O)c2ccc(C(F)(F)F)cc2)cnc1C(=O)NC1(CO)CC1 [Compound 292] and give its measured pEC50. 6.58

Consider the compound CC(C)OCCNC(=O)c1ncc(S(=O)(=O)c2ccc(C(F)(F)F)cc2)cc1N [Compound 192] and give its measured pEC50. 7.41

Consider the compound COCC(O)CNC(=O)c1ncc(S(=O)(=O)c2ccc(OC(F)(F)F)cc2F)cc1N (stereo not drawn) [Compound 71] and give its measured pEC50. 7.72

Consider the compound Nc1cc(S(=O)(=O)CC2CCCO2)cnc1C(=O)NCC(O)C(F)(F)F (stereo not drawn) [Compound 238] and give its measured pEC50. 6.27
